This listing pairs compounds with measured MIC Staphylococcus aureus (GC 4541).
system: Staphylococcus sp.; experiment: in vitro antibacterial evaluation, MIC by broth dilution; assay type: cell-based; settings: strain GC 4541; broth dilution, 18 hours at 35° C.
Numbered stars: 1 amine (or outer) side, 2 acyl side, 3 side chain; on linkers, the order of the positions; unused ones are H or OH. Square brackets hold non-standard residues; d marks the D form. Peptide text beside a SMILES is read from it. * marks the point of attachment. ξ: configuration not given here. X1 = N=C1NCC(C(O)C(N[*:1])C(=O)[*:2])N1C1OC(CO)C(O)C(O)C1O; ξEnduracididine(βξ-OH,4'ξ) = N=C1NCC(C(O)C(N)C(=O)O)N1; X2 = OCC1OC(OC2C(CO)OC(*)C(O)C2O)C(O)C(O)C1O; Diphenylacetyl = O=C(C(c1ccccc1)c1ccccc1)*; ξPhe(βξ-Me) = CC(c1ccccc1)C(N)C(=O)O

{"compound": "CN=C1N(C)CC(C(O)C2NC(=O)C(Cc3ccc(OC4OC(CO)C(OC5OC(CO)C(O)C(O)C5O)C(O)C4O)cc3)NC(=O)C(C(C)c3ccccc3)NC(=O)CNC(=O)C(CO)NC(=O)C(C(O)C3CN(C)C(=NC)N3C3OC(CO)C(O)C(O)C3O)NC2=O)N1C (centres unmarked)", "units_text": "µg/mL", "bound_operator": ">", "MIC Staphylococcus aureus (GC 4541)": 128}
{"compound": "CN=C1N(C)CC(CC2NC(=O)C(Cc3ccc(OC4OC(CO)C(OC5OC(CO)C(O)C(O)C5O)C(O)C4O)cc3)NC(=O)C(C(C)c3ccccc3)NC(=O)CNC(=O)C(CO)NC(=O)C(CC3CN(C)C(=NC)N3C3OC(CO)C(O)C(O)C3O)NC2=O)N1C (centres unmarked)", "units_text": "µg/mL", "bound_operator": ">", "MIC Staphylococcus aureus (GC 4541)": 128}
{"compound": "CC(c1ccccc1)C1NC(=O)CNC(=O)C(CO)NC(=O)C(C(O)C2CN(Cc3ccc(C(=O)O)cc3)C(=N)N2C2OC(CO)C(O)C(O)C2O)NC(=O)C(C(O)C2CNC(=N)N2)NC(=O)C(Cc2ccc(OC3OC(CO)C(OC4OC(CO)C(O)C(O)C4O)C(O)C3O)cc2)NC1=O (centres unmarked)", "units_text": "µg/mL", "bound_operator": ">", "MIC Staphylococcus aureus (GC 4541)": 128}
{"compound": "CC(c1ccc(Cl)cc1)C1NC(=O)CNC(=O)C(CO)NC(=O)C(C(O)C2CNC(=N)N2C2OC(CO)C(O)C(O)C2O)NC(=O)C(C(O)C2CNC(=N)N2)NC(=O)C(Cc2ccc(OC3OC(CO)C(OC4OC5COC(c6ccccc6)OC5C(O)C4O)C(O)C3O)cc2)NC1=O (centres unmarked)", "units_text": "µg/mL", "bound_operator": "=", "MIC Staphylococcus aureus (GC 4541)": 0.5}
{"compound": "CC(c1ccccc1)C1NC(=O)CNC(=O)C(CO)NC(=O)C(C(O)C2CNC(=N)N2C2OC(CO)C(O)C(O)C2O)NC(=O)C(C(O)C2CNC(=N)N2)NC(=O)C(Cc2ccc(OC3OC(COC(=O)OCc4ccccc4)C(OC4OC(CO)C(O)C(O)C4O)C(O)C3O)cc2)NC1=O (centres unmarked)", "units_text": "µg/mL", "bound_operator": "=", "MIC Staphylococcus aureus (GC 4541)": 4}
{"compound": "CC(c1ccccc1)C1NC(=O)CNC(=O)C(CO)NC(=O)C(C(O)C2CN(Cc3ccc4ccccc4c3)C(=N)N2C2OC(CO)C(O)C(O)C2O)NC(=O)C(C(O)C2CNC(=N)N2)NC(=O)C(Cc2ccc(OC3OC(CO)C(OC4OC(CO)C(O)C(O)C4O)C(O)C3O)cc2)NC1=O (centres unmarked)", "units_text": "µg/mL", "bound_operator": ">", "MIC Staphylococcus aureus (GC 4541)": 128}
{"compound": "N=C1NCC(C(O)C2NC(=O)C(Cc3ccc(OC4OC(CO)C(OC5OC(CO)C(O)C6OC7(OC56)C5CC6CC(C5)CC7C6)C(O)C4O)cc3)NC(=O)C(CC3CCCCC3)NC(=O)CNC(=O)C(CO)NC(=O)C(C(O)C3CNC(=N)N3C3OC(CO)C(O)C(O)C3O)NC2=O)N1 (centres unmarked) [Example 106a]", "units_text": "µg/mL", "bound_operator": "=", "MIC Staphylococcus aureus (GC 4541)": 2}
{"compound": "CC(c1ccccc1)C1NC(=O)CNC(=O)C(CO)NC(=O)C(C(O)C2CNC(=N)N2C2OC(CO)C(O)C(O)C2O)NC(=O)C(C(O)C2CNC(=N)N2)NC(=O)C(Cc2ccc(O)c(NC=O)c2)NC1=O (centres unmarked)", "units_text": "µg/mL", "bound_operator": ">", "MIC Staphylococcus aureus (GC 4541)": 128}
{"compound": "CC(c1ccccc1)C1NC(=O)CNC(=O)C(CO)NC(=O)C(C(O)C2CNC(=N)N2C2OC(CO)C(O)C(O)C2O)NC(=O)C(C(O)C2CNC(=N)N2)NC(=O)C(Cc2ccc(OC3OC(CO)C(OC4OC5COC(c6ccc(C(=O)c7cc(I)c(I)c(I)c7)cc6)OC5C(O)C4O)C(O)C3O)cc2)NC1=O (centres unmarked)", "units_text": "µg/mL", "bound_operator": "=", "MIC Staphylococcus aureus (GC 4541)": 64}
{"compound": "CCCCCCCN1CC(C(O)C2NC(=O)C(C(O)C3CNC(=N)N3)NC(=O)C(Cc3ccc(OC4OC(CO)C(OC5OC6COC7(OC6C(O)C5O)C5CC6CC(C5)CC7C6)C(O)C4O)cc3)NC(=O)C(C(C)c3ccccc3)NC(=O)CNC(=O)C(CO)NC2=O)N(C2OC(CO)C(O)C(O)C2O)C1=N (centres unmarked)", "units_text": "µg/mL", "bound_operator": "=", "MIC Staphylococcus aureus (GC 4541)": 2}
{"compound": "CC(c1ccccc1)C1NC(=O)CNC(=O)C(COC(=O)C(c2ccccc2)c2ccccc2)NC(=O)C(C(O)C2CNC(=N)N2C2OC(CO)C(O)C(O)C2O)NC(=O)C(C(O)C2CNC(=N)N2)NC(=O)C(Cc2ccc(OC3OC(CO)C(OC4OC(CO)C(O)C(O)C4O)C(O)C3O)cc2)NC1=O (stereo not drawn) [Example 96a] (cyclo(G[ξPhe(βξ-Me)]Y(X2)[ξEnduracididine(βξ-OH,4'ξ)][X1]S(Diphenylacetyl)); configuration not given here)", "units_text": "µg/mL", "bound_operator": "=", "MIC Staphylococcus aureus (GC 4541)": 128}
{"compound": "CC(c1ccccc1)C1NC(=O)CNC(=O)C(CO)NC(=O)C(C(O)C2CNC(=N)N2C2OC(CO)C(O)C(O)C2O)NC(=O)C(C(O)C2CNC(=N)N2)NC(=O)C(Cc2ccc3oc(-c4ccc(C(C)(C)C)cc4)nc3c2)NC1=O (centres unmarked)", "units_text": "µg/mL", "bound_operator": "=", "MIC Staphylococcus aureus (GC 4541)": 2}
{"compound": "CC(c1ccccc1)C1NC(=O)CNC(=O)C(CO)NC(=O)C(C(O)C2CN(c3nc4ccccc4s3)C(=N)N2C2OC(CO)C(O)C(O)C2O)NC(=O)C(C(O)C2CNC(=Nc3nc4ccccc4s3)N2)NC(=O)C(Cc2ccc(OC3OC(CO)C(OC4OC(CO)C(O)C(O)C4O)C(O)C3O)cc2)NC1=O (centres unmarked)", "units_text": "µg/mL", "bound_operator": ">", "MIC Staphylococcus aureus (GC 4541)": 64}
{"compound": "CC(c1ccccc1)C1NC(=O)CNC(=O)C(CO)NC(=O)C(C(O)C2CN(c3nc4ccccc4o3)C(=N)N2C2OC(CO)C(O)C(O)C2O)NC(=O)C(C(O)C2CNC(=Nc3nc4ccccc4o3)N2)NC(=O)C(Cc2ccc(OC3OC(CO)C(OC4OC(CO)C(O)C(O)C4O)C(O)C3O)cc2)NC1=O (centres unmarked)", "units_text": "µg/mL", "bound_operator": ">", "MIC Staphylococcus aureus (GC 4541)": 128}
